- targetOrSystem: CDK9/cyclin K (Homo sapiens)
- Construct: purchased Invitrogen (ThermoFisher) PV4335
- Sequence (P50750 whole entry): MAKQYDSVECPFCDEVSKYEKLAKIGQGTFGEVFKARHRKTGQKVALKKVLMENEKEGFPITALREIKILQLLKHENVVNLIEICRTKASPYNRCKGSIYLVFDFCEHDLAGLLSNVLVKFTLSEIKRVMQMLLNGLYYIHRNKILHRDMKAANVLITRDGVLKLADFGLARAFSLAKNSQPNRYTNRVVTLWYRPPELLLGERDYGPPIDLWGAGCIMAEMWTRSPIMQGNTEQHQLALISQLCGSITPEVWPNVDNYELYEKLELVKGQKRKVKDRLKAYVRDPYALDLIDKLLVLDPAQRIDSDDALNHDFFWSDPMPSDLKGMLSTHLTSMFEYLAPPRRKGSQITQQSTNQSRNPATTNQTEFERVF
- Sequence (O75909 whole entry partner): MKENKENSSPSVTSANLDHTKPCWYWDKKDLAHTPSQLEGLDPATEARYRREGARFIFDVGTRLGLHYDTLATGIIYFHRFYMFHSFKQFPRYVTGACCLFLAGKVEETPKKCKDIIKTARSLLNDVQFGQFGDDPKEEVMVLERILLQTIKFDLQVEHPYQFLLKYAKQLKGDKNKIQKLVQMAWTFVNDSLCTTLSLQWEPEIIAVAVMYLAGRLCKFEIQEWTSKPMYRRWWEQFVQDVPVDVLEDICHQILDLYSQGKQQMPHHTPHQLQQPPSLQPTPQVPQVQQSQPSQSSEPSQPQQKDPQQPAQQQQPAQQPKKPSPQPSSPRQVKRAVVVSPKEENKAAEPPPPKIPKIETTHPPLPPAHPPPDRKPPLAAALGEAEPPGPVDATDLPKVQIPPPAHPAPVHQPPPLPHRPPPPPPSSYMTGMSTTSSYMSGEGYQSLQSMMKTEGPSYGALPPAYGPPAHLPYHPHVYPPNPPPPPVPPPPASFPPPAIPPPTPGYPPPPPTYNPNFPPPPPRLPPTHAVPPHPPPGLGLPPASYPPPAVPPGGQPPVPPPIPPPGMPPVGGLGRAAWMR
- procedureText: TR-FRET Lanthascreen Eu Kinase Binding assay
- runConditions: classifies curves by quality of fit, efficacy and number of asymptotes
This listing pairs compounds with measured Curve Class.
In your answer, state the number alone without any accompanying words.

compound="CN(C)CCCn1cc(C2=C(c3c[nH]c4ccccc34)C(=O)NC2=O)c2ccccc21 [GF109203X]" endpoint="Curve Class" assayvalue=-1.2
compound="CN1CC[C@@H](c2c(O)cc(O)c3c(=O)cc(-c4ccc(C(F)(F)F)cc4Cl)oc23)[C@@H]1CO [Voruciclib]" endpoint="Curve Class" assayvalue=-1.1
compound="CNC(=O)c1ccc(Nc2ncc(C(F)(F)F)c(NCc3nccnc3N(C)[S+](C)(=O)[O-])n2)cc1 [Defactinib (VS-6063, PF-04554878)]" endpoint="Curve Class" assayvalue=-1.1

// next entry
Summary for this compound, O=C1Nc2ccc3ncsc3c2/C1=C/c1c[nH]cn1 [Compound C16, C16] : Curve Class is -1.2
